We begin with a simple list: items and their reported inhibition of SARS-CoV PLpro.
- Assayed System: SARS‐CoV PL^pro (Severe acute respiratory syndrome coronavirus)
- Procedure Details: biochemical
- Format: biochemical
- Run Conditions: 10 µM

INSERT INTO assay_data (compound, assayed_system, test_readout, measured_result) VALUES
  ('CO[C@H]1O[C@H](CO)[C@@H](O)[C@H](O)[C@H]1NC(=O)C1CCN(C(=S)[S-])CC1.[Au+3].[Br-].[Br-]', 'SARS‐CoV PL^pro (Severe acute respiratory syndrome coronavirus)', 'inhibition of SARS-CoV PLpro', '86%');

Ask: Indicate the recorded inhibition of SARS-CoV PLpro value for this compound: O=C(NC1C(O)OC(CO)C(O)C1O)C1CCN(C(=S)[S][Au][PH](c2ccccc2)(c2ccccc2)c2ccccc2)CC1 (mixture of isomers)
Reply: 79%

Ask: Tell us which inhibition of SARS-CoV PLpro value is on record for [Cl-].[Cl-].[Ti+4].c1cc[cH-]c1.c1cc[cH-]c1 [Ti‐1, titanocene dichloride, reference compound]
Reply: 6%

Ask: For the compound Cc1cn(CC=C[c-]2cccc2)c(=O)[nH]c1=O.[Ru+2].c1cc[cH-]c1 , give its measured inhibition of SARS-CoV PLpro value.
Reply: 3%
